Reported IC50 values for a set of compounds
test: Modulation of gamma secretase in CHO-2B7 cells assessed as reduction in amyloid beta 42 level after 5 hrs by MSD ELISA; assay type: cell-based; conditions: Cricetulus griseus, CHO-2B7, 5 h

| structureSmilesString | unitInfo | IC50 |
| --- | --- | --- |
| CNC(=O)O[C@H](C(C)C)[C@H]1C[C@@H](C)[C@H]2[C@H](O1)[C@H](O)[C@@]1(C)[C@@H]3CC[C@H]4C(C)(C)[C@@H](OC(=O)NC5CNC5)CC[C@@]45C[C@@]35CC[C@]21C | nM | 120 |
| CC(C)[C@@H](OC(=O)N1CCC1)[C@H]1C[C@@H](C)[C@H]2[C@H](O1)[C@H](O)[C@@]1(C)[C@@H]3CC[C@H]4C(C)(C)[C@@H](OC(=O)N(C)C)CC[C@@]45C[C@@]35CC[C@]21C | nM | 1300 |
| CC(C)[C@@H](OC(=O)N1CCC1)[C@H]1C[C@@H](C)[C@H]2[C@H](O1)[C@H](O)[C@@]1(C)[C@@H]3CC[C@H]4C(C)(C)[C@@H](OC(=O)N5CC(NCC(F)(F)F)C5)CC[C@@]45C[C@@]35CC[C@]21C | nM | 750 |
| CCO[C@@H]([C@H]1C[C@@H](C)[C@H]2[C@H](O1)[C@H](O)[C@@]1(C)[C@@H]3CC[C@H]4C(C)(C)[C@@H](O[C@H]5CN(CC(F)(F)F)CCO5)CC[C@@]45C[C@@]35CC[C@]21C)C(C)(C)O | nM | 2300 |

---

assay: Plasma concentration in CD1 mouse at 30 mg/kg, ip at 6 hrs; type: ADME, organism-based; parameters: dose 30 mg/kg, route intraperitoneal
measure: concentration at 6 h (nM)

| structureSmilesString | measure | measured |
| --- | --- | --- |
| CCO[C@@H]([C@H]1C[C@@H](C)[C@H]2[C@H](O1)[C@H](O)[C@@]1(C)[C@@H]3CC[C@H]4C(C)(C)[C@@H](O[C@H]5CN(CCOC)CCO5)CC[C@@]45C[C@@]35CC[C@]21C)C(C)(C)O | concentration at 6 h | 2200 |

---

test: Cmax in rat at 10 mg/kg, po; assay type: ADME, organism-based; parameters: dose 10 mg/kg, route oral; conditions: in vivo

| structureSmilesString | unitInfo | Cmax |
| --- | --- | --- |
| C[C@@H]1C[C@H]([C@H](O)C(C)(C)O)O[C@H]2[C@H]1[C@@]1(C)CC[C@@]34C[C@@]35CC[C@H](O[C@H]3CN([C@H]6CCNC6=O)CCO3)C(C)(C)[C@@H]5CC[C@H]4[C@]1(C)[C@H]2O | nM | 2200 |

---

Reported pIC50 values for a set of molecules
assay: Modulation of gamma secretase in CHO-2B7 cells assessed as reduction in amyloid beta 42 level after 5 hrs by MSD ELISA; type: cell-based; settings: Cricetulus griseus, CHO-2B7, 5 h
pIC50: −log10 of the molar value.

| structureSmilesString | pIC50 |
| --- | --- |
| CCO[C@H](C(C)C)[C@H]1C[C@@H](C)[C@H]2[C@H](O1)[C@H](O)[C@@]1(C)[C@@H]3CC[C@H]4C(C)(C)[C@@H](O)CC[C@@]45C[C@@]35CC[C@]21C | 5.36 |
| CC(C)[C@@H](OC(=O)N1CCC1)[C@H]1C[C@@H](C)[C@H]2[C@H](O1)[C@H](O)[C@@]1(C)[C@@H]3CC[C@H]4C(C)(C)[C@@H](OC(=O)NCCC(=O)O)CC[C@@]45C[C@@]35CC[C@]21C | 6.21 |
| CCO[C@@H]([C@H]1C[C@@H](C)[C@H]2[C@H](O1)[C@H](O)[C@@]1(C)[C@@H]3CC[C@H]4C(C)(C)[C@@H](OC(=O)NC5CNC5)CC[C@@]45C[C@@]35CC[C@]21C)C(C)(C)O | 7.28 |
| CCO[C@@H]([C@H]1C[C@@H](C)[C@H]2[C@H](O1)[C@H](O)[C@@]1(C)[C@@H]3CC[C@H]4C(C)(C)[C@@H](OC(=O)N5CCN(CC(=O)O)CC5)CC[C@@]45C[C@@]35CC[C@]21C)C(C)(C)O | 6.54 |
| CNC(=O)O[C@H](C(C)C)[C@H]1C[C@@H](C)[C@H]2[C@H](O1)[C@H](O)[C@@]1(C)[C@@H]3CC[C@H]4C(C)(C)[C@@H](O[C@H]5CNCCO5)CC[C@@]45C[C@@]35CC[C@]21C | 6.32 |
| CCO[C@@H]([C@H]1C[C@@H](C)[C@H]2[C@H](O1)[C@H](O)[C@@]1(C)[C@@H]3CC[C@H]4C(C)(C)[C@@H](O[C@H]5CN(CCOC)CCO5)CC[C@@]45C[C@@]35CC[C@]21C)C(C)(C)O | 6.57 |
| CCO[C@@H]([C@H]1C[C@@H](C)[C@H]2[C@H](O1)[C@H](O)[C@@]1(C)[C@@H]3CC[C@H]4C(C)(C)[C@@H](OC(=O)N(C)C5CN(C)C5)CC[C@@]45C[C@@]35CC[C@]21C)C(C)(C)O | 7.21 |
| CC(=O)O[C@@H]([C@H]1C[C@@H](C)[C@H]2[C@H](O1)[C@H](O)[C@@]1(C)[C@@H]3CC[C@H]4C(C)(C)[C@@H](OC(N)=O)CC[C@@]45C[C@@]35CC[C@]21C)C(C)(C)O | 6.70 |
| CC(C)[C@@H](OC(=O)N1CCC1)[C@H]1C[C@@H](C)[C@H]2[C@H](O1)[C@H](O)[C@@]1(C)[C@@H]3CC[C@H]4C(C)(C)[C@@H](OC(=O)N[C@H]5CCNC5=O)CC[C@@]45C[C@@]35CC[C@]21C | 6.40 |
